Please go through the items and note down their Extent of disease by histologic score (combined): number of animals in scoring group 0.5.
Test system: Pneumocystis carinii
Test: Treatment of Pneumocystis carinii pneumonia in Sprague-Dawley rats (extent of disease by histologic score)
Type: in vivo, male Sprague-Dawley rats
Details: Table XII composite, 10 mg/kg; 0.5 = <10 cysts found per 2 sections
One number for each entry, in animals.

Fill in Extent of disease by histologic score (combined): number of animals in scoring group 0.5 for each of the 3 molecules listed.
1. N=C(N)c1ccc(NCCCCCNc2ccc(C(=N)N)cc2N)c(N)c1
2. N=C(N)c1ccc(OCCOc2ccc(C(=N)N)cc2N)c(N)c1
3. N=C(N)c1ccc(NCCNc2ccc(C(=N)N)cc2N)c(N)c1

3
4
0
